Measured Blocking activity (IC50), STAT3-luc reporter, listed per entry for reference.
# target or system: T1, IL-11 (Cat. 12225-HNCE, Sino Biological Inc.) (UniProt P20809 22-199, limits assumed)
# T1 sequence (looked up): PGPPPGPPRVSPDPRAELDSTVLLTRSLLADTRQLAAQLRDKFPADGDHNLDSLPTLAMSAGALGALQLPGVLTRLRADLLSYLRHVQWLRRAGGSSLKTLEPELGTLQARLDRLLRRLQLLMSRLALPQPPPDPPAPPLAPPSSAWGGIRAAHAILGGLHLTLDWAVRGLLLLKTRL
# experimental details: cell-based or functional assay
State just the number; it will be interpreted in µg/mL.

Worked set:
{"binder": "hz8C8-VHm1 + hz8C8-VLm5 (antibody, human IgG1, kappa, V domains shown, human IgG1 constant regions) VH: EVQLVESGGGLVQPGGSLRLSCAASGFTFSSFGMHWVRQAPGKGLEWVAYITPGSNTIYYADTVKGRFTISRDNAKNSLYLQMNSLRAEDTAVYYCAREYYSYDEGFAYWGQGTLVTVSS VL: EIVLTQSPATLSLSPGERATLSCSVSELLSTNYLHWYQQKPGQAPRLLIYRTSNLASGIPARFSGSGSGTDFTLTISSLEPEDFAVYYCQQGVDVPFTFGQGTKLEIKR", "measurement unit": "µg/mL", "reported": 0.1}
{"binder": "hz18A10-VH + hz18A10-VLm17 (antibody, V domains shown, Constant regions not restated for this antibody) VH: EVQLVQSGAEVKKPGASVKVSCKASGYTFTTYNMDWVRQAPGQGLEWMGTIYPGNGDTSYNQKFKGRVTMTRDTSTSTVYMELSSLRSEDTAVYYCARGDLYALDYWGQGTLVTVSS VL: DIQMTQSPSSLSASVGDRVTITCKASQSVYRDVAWYQQKPGKAPKLLIYRASNRYTGVPSRFSGSGSGTDFTFTISSLQPEDIATYYCQHDYSSPYTFGQGTKLEIK", "measurement unit": "µg/mL", "reported": 3.47}
{"binder": "hz18A10-VH + hz18A10-VLm2 (antibody, V domains shown, Constant regions not restated for this antibody) VH: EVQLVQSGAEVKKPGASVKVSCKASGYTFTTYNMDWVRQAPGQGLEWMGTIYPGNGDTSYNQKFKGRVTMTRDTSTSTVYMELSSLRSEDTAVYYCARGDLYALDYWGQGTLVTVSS VL: DIQMTQSPSSLSASVGDRVTITCKASYSVSNDVAWYQQKPGKAPKLLIYSASNRYTGVPSRFSGSGSGTDFTFTISSLQPEDIATYYCQHDYSSPYTFGQGTKLEIK", "measurement unit": "µg/mL", "reported": 17.4}
{"binder": "hz18A10-VHm1 + hz18A10-VLm9 (antibody, V domains shown, Constant regions not restated for this antibody) VH: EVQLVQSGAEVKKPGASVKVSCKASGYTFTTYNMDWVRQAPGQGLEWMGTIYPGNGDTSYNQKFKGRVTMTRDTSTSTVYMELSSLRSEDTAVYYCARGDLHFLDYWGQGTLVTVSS VL: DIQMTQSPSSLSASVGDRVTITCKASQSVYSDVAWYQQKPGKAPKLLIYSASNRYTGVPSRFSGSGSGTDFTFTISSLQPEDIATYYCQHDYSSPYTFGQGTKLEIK", "measurement unit": "µg/mL", "reported": 11.1}
{"binder": "hz8C8-VHm1-m3 + hz8C8-VLm7-m2 (antibody, human IgG1, kappa, V domains shown, human IgG1 constant regions) VH: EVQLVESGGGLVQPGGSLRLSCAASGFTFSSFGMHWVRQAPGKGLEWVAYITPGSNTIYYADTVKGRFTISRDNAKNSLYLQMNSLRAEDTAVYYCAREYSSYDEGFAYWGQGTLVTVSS VL: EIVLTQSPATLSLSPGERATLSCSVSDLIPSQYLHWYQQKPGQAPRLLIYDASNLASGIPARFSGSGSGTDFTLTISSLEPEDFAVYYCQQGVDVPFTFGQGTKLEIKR", "measurement unit": "µg/mL", "reported": 0.009}
{"binder": "hz8C8-VHm1-m3 + hz8C8-VLm7-m1 (antibody, human IgG1, kappa, V domains shown, human IgG1 constant regions) VH: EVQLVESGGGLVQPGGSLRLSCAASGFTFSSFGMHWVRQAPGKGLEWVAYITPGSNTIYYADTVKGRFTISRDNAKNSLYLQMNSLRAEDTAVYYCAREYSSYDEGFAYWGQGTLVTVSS VL: EIVLTQSPATLSLSPGERATLSCSVSDLIPSQYLHWYQQKPGQAPRLLIYRASNLASGIPARFSGSGSGTDFTLTISSLEPEDFAVYYCQQGVDVPFTFGQGTKLEIKR", "measurement unit": "µg/mL", "reported": 0.01}
{"binder": "hz18A10-VHm2 + hz18A10-VLm9 (antibody, V domains shown, Constant regions not restated for this antibody) VH: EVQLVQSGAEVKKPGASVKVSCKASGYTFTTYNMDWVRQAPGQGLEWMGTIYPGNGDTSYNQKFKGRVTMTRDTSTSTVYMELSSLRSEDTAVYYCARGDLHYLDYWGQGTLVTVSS VL: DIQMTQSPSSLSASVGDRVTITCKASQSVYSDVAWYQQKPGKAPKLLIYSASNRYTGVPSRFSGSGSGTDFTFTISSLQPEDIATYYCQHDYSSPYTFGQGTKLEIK", "measurement unit": "µg/mL", "reported": 13.9}
{"binder": "hz18A10-VHm8 + hz18A10-VLm19 (antibody, V domains shown, Constant regions not restated for this antibody) VH: EVQLVQSGAEVKKPGASVKVSCKASGYTFTTYDMHWVRQAPGQGLEWMGTIYPGNGDTSYNQKFKGRVTMTRDTSTSTVYMELSSLRSEDTAVYYCARGDLYALDYWGQGTLVTVSS VL: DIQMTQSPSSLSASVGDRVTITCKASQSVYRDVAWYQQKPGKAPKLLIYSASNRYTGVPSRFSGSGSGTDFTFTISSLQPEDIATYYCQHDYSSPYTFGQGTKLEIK", "measurement unit": "µg/mL", "reported": 8.64}
{"binder": "hz18A10-VH + hz18A10-VLm5 (antibody, V domains shown, Constant regions not restated for this antibody) VH: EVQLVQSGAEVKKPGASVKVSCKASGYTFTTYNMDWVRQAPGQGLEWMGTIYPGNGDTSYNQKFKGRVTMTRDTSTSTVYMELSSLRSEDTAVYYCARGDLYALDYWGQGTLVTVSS VL: DIQMTQSPSSLSASVGDRVTITCKASQSVSNDIAWYQQKPGKAPKLLIYSASNRYTGVPSRFSGSGSGTDFTFTISSLQPEDIATYYCQHDYSSPYTFGQGTKLEIK", "measurement unit": "µg/mL", "reported": 18.1}

Turning to the following binder.
The reported value for hz18A10-VHm1 + hz18A10-VLm14 (antibody, V domains shown, Constant regions not restated for this antibody) VH: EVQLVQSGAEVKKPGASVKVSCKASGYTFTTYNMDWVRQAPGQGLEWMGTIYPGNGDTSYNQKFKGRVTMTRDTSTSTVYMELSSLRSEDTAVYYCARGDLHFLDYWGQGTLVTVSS VL: DIQMTQSPSSLSASVGDRVTITCKASQSVSNDVAWYQQKPGKAPKLLIYRASRRYTGVPSRFSGSGSGTDFTFTISSLQPEDIATYYCQHDYSSPYTFGQGTKLEIK in terms of Blocking activity (IC50), STAT3-luc reporter is 9.68
